For each record, write down the corresponding fold induction at 10 µM.
Test system: primary rat mixed cortical cells
Test: In vitro myelination assay (MBP positive myelin strands, fold myelin pixels above background)
Assay type: cell-based
Settings: Rattus norvegicus, 10.0 μM compound; read-out: Fold myelin pixels above background relative to baseline of no added compound
Excerpt: In Vitro Myelination Assay Compounds were screened for their ability to induce myelination using a primary rat mixed cortical cell culture assay, which contains neurons, oligodendrocyte precursor cells, oligodendrocytes, astrocytes and microglia. […] The myelin strands were quantitated using a custom created myelin detection software program. […]

Record for Cc1cc(NCCN2CC[S+]([O-])CC2)cc(Nc2ncn(-c3cc(F)cc(F)c3)n2)c1 [Compound 940] under target or system primary rat mixed cortical cells: fold induction at 10 µM reported as 1 to 10

Record for Cc1cc(Nc2ncn(-c3cc(F)cc(F)c3)n2)cc(NC2CCCCC2N2CCOCC2)c1 (centres unmarked) [Compound 939] under target or system primary rat mixed cortical cells: fold induction at 10 µM reported as ≤ 1

Record for Cc1cc(Nc2ncn(-c3cc(F)cc(F)c3)n2)cc(NC2CCN(CCN3CCOCC3)C2)c1 (centres unmarked) [Compound 880] under target or system primary rat mixed cortical cells: fold induction at 10 µM reported as ≤ 1

Record for Cc1cc(Nc2ncn(-c3cc(F)cc(F)c3)n2)cc(N2CC3(C2)CN(C(C)C)C3)c1 [Compound 1081] under target or system primary rat mixed cortical cells: fold induction at 10 µM reported as 1 to 10

Record for Cc1cc(Nc2ncn(-c3ccc(F)c(F)c3)n2)c(F)c(OC2CCOC2)c1 (centres unmarked) [Compound 978] under target or system primary rat mixed cortical cells: fold induction at 10 µM reported as 1 to 10

Record for Cc1cc(Nc2ncn(-c3ccc(F)c(F)c3)n2)c(F)c(OC2CCOC2)c1 (single isomer, unassigned) [Compound 1009] under target or system primary rat mixed cortical cells: fold induction at 10 µM reported as 1 to 10

Record for Cc1cc(Nc2ncn(-c3cc(F)cc(F)c3)n2)c(F)c(N2CCN(CCO)CC2)c1 [Compound 1043] under target or system primary rat mixed cortical cells: fold induction at 10 µM reported as ≤ 1

Record for Cc1cc(Nc2ncn(-c3cnccn3)n2)c(F)c(OC2CCOC2)c1 (centres unmarked) [Compound 952] under target or system primary rat mixed cortical cells: fold induction at 10 µM reported as 1 to 10

* * *

For each record, write down the corresponding fold induction at 1 µM.
system: primary rat mixed cortical cells; assay: In vitro myelination assay (MBP positive myelin strands, fold myelin pixels above background); format: cell-based; settings: Rattus norvegicus, 1.0 μM compound, relative to baseline of no added compound; read-out: Fold myelin pixels above background

Input CC(=O)N1CCC(Oc2cc(C)cc(Nc3ncn(-c4ccc(F)c(F)c4)n3)c2)CC1 [Compound 626] . Output fold induction at 1 µM: 10 to 100

Input Cc1cc(Nc2ncn(-c3cc(F)cc(F)c3)n2)cc(C2(O)CCN(C3COC3)CC2)c1 [Compound 516] . Output fold induction at 1 µM: 10 to 100

Input Cc1cc(Nc2ncn(-c3cc(F)cc(F)c3)n2)cc([C@@H]2CN(C3COC3)CCO2)c1 (single isomer, unassigned) [Compound 751] . Output fold induction at 1 µM: 10 to 100

Input Cc1cc(Nc2ncn(-c3cc(F)cc(F)c3)n2)nc(N2CC(N3CCOCC3)C2)c1 [Compound 537] . Output fold induction at 1 µM: 1 to 10

Input Cc1cc(Nc2ncn(-c3cc(F)cc(F)c3)n2)nc(N2CCCC(O)C2)c1 (centres unmarked) [Compound 755] . Output fold induction at 1 µM: 1 to 10

Input F[C@H]1CCN(c2cc(Nc3ncn(-c4ccccc4)n3)cc(C3CC3)n2)C1 [Compound 460] . Output fold induction at 1 µM: 100 to 1000

Input Cc1cc(Nc2ncn(-c3cc(F)cc(F)c3)n2)cc(N2CC(C(C)(C)O)C2)c1 [Compound 519] . Output fold induction at 1 µM: 100 to 1000

Input Cc1cc(Nc2ncn(-c3ccc(F)c(F)c3)n2)cc(N2CC(N3CCCOCC3)C2)c1 [Compound 659] . Output fold induction at 1 µM: 10 to 100

Input Cc1cc(Nc2ncn(-c3ccnc(C)n3)n2)cc(N2CCN(C3COC3)CC2)c1 [Compound 418] . Output fold induction at 1 µM: ≤ 1

Input N#Cc1cc(Nc2ncn(-c3cc(F)cc(F)c3)n2)cc(N2CCN(C3COC3)CC2)c1 [Compound 678] . Output fold induction at 1 µM: 10 to 100

Input Fc1cc(F)cc(-n2cnc(Nc3cc(Cl)cc(N4CCOCC4)c3)n2)c1 [Compound 426] . Output fold induction at 1 µM: 1000 to 10000

Input Cc1cc(Nc2ncn(-c3cc(F)cc(F)c3)n2)cc([C@]2(C)CN(C3COC3)CCO2)c1 (single isomer, unassigned) [Compound 750] . Output fold induction at 1 µM: 1 to 10

Input CCC1(O)CN(c2cc(C)cc(Nc3ncn(-c4cc(F)cc(F)c4)n3)c2)C1 [Compound 553] . Output fold induction at 1 µM: 100 to 1000

Input Cc1cc(Nc2ncn(-c3cccc(F)c3F)n2)cc(N2CCN(C3COC3)CC2)c1 [Compound 445] . Output fold induction at 1 µM: 10 to 100
